// data source = ChEMBL document CHEMBL5113446

systemUnderTest: Kappa-type opioid receptor (Homo sapiens)
Can you tell me Ki for the items I'm about to list?
Answers are plain numbers, in µM.

COc1ccc(CN(C)CCCNC(=O)c2ccco2)cc1OC    4.17
CN(CCCNC(=O)c1ccc2ccccc2n1)Cc1ccccc1    3.58

Now let's try a different one.
stdin: For Kappa-type opioid receptor (Homo sapiens), provide Ki of CN(CCCNC(=O)c1cc2ccccc2o1)Cc1ccccc1 please.
stdout: 2.39

====

# pKi measurements, system: Kappa-type opioid receptor (Homo sapiens, UniProt P41145)
# Sequence (P41145 whole entry): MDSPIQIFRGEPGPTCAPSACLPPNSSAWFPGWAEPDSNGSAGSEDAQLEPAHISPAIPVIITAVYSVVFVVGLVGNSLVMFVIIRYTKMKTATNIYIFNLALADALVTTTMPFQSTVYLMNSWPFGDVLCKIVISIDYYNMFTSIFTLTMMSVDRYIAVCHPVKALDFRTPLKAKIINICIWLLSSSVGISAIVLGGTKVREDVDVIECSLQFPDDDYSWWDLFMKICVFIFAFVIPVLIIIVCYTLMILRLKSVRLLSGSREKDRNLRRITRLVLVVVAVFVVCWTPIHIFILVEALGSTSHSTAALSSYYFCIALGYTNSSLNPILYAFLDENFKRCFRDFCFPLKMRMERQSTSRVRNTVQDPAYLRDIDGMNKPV
pKi: −log10 of the molar value.

Worked cases, answers included:
COc1ccc(CN(C)CCCNC(=O)c2cc3ccccc3o2)cc1OC    < 5.00
COc1ccc(CN(C)CCCNC(=O)c2ccc3ccccc3n2)cc1OC    < 5.00

Now let's try a different one.
stdin: Suppose we examine the compound COc1ccc(CN(C)CCCNC(=O)c2ccc3ccccc3c2)cc1OC ; what pKi value has been reported?
stdout: < 5.00
